Readings of Relative EC50 for the listed binders
- assay-system: T1, recombinant human C5a (human, UniProt P01031 678-751)
- T1 construct: Bought rhC5a (Hycult HC2101 for the ELISA, Sigma C5788 for the CD11b assay); also called rhC5a; hC5a
- T1 sequence: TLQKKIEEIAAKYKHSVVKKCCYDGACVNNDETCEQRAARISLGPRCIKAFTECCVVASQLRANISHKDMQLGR
- test-description: ELISA on C5a (ABZENA), 0-100 ng/mL antibody

{"columns": ["binder", "Relative EC50"],
 "data": [
  ["VH3Vk2 (IFX-2 clone) (antibody, IgG4, V domains shown, Humanized IgG4 (S241P) / kappa; also called VH3/Vκ2; not shown: human kappa light chain constant domain) VH: QVQLVQSGAEVKKPGASVKVSCKASGYSFTTFWMDWVRQAPGQGLEWIGRIDPSDSESRLDQRFKDRATLTVDKSTSTVYMELSSLRSEDTAVYYCARGNDGYYGFAYWGQGTLVTVSS VL: DIVLTQSPASLSASVGDRVTITCKASQSVDYDGDSYMKWYQQKPGKAPKLLIYAASNLQSGIPSRFSGSGSGTDFTLTISSLQPEDFATYYCQQSNEDPYTFGQGTKLEIK", "1.05 relative to IFX-1 (VH0Vk0)"],
  ["IFX-1 (VH0/Vκ0), chimeric anti-human C5a IgG4 antibody (antibody, V domains shown, also called VH0Vk0; VH0Vk0 (IFX-1); not shown: human kappa light chain constant domain) VH: QVQLQQSGPQLVRPGTSVKISCKASGYSFTTFWMDWVKQRPGQGLEWIGRIDPSDSESRLDQRFKDRATLTVDKSSSTVYMQLSSPTSEDSAVYYCARGNDGYYGFAYWGQGTLVTVSS VL: DIVLTQSPASLAVSLGQRATISCKASQSVDYDGDSYMKWYQQKPGQPPKLLIYAASNLQSGIPARFSGSGSGTDFTLNIHPVEEEDAATYYCQQSNEDPYTFGGGTKLEIK", "1 relative to IFX-1 (VH0Vk0)"],
  ["VH2Vk3 (IFX-2 clone) (antibody, IgG4, V domains shown, Humanized IgG4 (S241P) / kappa; also called VH2/Vκ3; not shown: human kappa light chain constant domain) VH: QVQLVQSGAEVKKPGASVKISCKASGYSFTTFWMDWVKQAPGQGLEWIGRIDPSDSESRLDQRFKDRATLTVDKSTSTVYMELSSLRSEDTAVYYCARGNDGYYGFAYWGQGTLVTVSS VL: DIQLTQSPSSLSASVGDRVTITCKASQSVDYDGDSYMKWYQQKPGKAPKLLIYAASNLQSGIPSRFSGSGSGTDFTLTISSLQPEDFATYYCQQSNEDPYTFGQGTKLEIK", "1.09 relative to IFX-1 (VH0Vk0)"]
]}

These entries and their values trace back to patent US20230279087A1.
